# credit: patent US20240287046A1

Test system: ASPC-1 tumor-bearing mice
test-summary: Biodistribution of radionuclide labeled complexes in ASPC-1 tumor-bearing mice
Format: in vivo, BALB/c nude mice
settings: Kidney, 1 h
measured-attribute: % ID/g (1 h) Kidney (% ID/g)

compound	experimental-target	unit-tag	data-value
COc1cccc(OC)c1-c1cc(C(=O)NC2(C(=O)O)C3CC4CC(C3)CC2C4)nn1-c1ccc(OCCCN(C)CCCN(C)C(=O)CN2CCN(CC(=O)[O-])CCN(CC(=O)[O-])CCN(CC(=O)[O-])CC2)cc1C(C)C.[177Lu+3] (stereo not shown) [^177Lu-I-7]	ASPC-1 tumor-bearing mice	% ID/g	2.85
COc1cccc(OC)c1-c1cc(C(=O)NC2(C(=O)O)C3CC4CC(C3)CC2C4)nn1-c1ccc(N(CCCN(C)C)C(=O)COCCOCCNC(=O)CN2CCN(CC(=O)[O-])CCN(CC(=O)[O-])CCN(CC(=O)[O-])CC2)cc1C(C)C.[177Lu+3] (stereo not shown) [^177Lu-I-6]	ASPC-1 tumor-bearing mice	% ID/g	3.71
COc1cccc(OC)c1-c1cc(C(=O)NC2(C(=O)O)C3CC4CC(C3)CC2C4)nn1-c1ccc(C(=O)N(CCCNC(=O)CN2CCN(CC(=O)[O-])CCN(CC(=O)[O-])CCN(CC(=O)[O-])CC2)CCCN(C)C)cc1C(C)C.[177Lu+3] (stereo not shown) [^177Lu-C-5, reference compound]	ASPC-1 tumor-bearing mice	% ID/g	0.87
COc1cccc(OC)c1-c1cc(C(=O)NC2(C(=O)O)C3CC4CC(C3)CC2C4)nn1-c1ccc(C(=O)N(C)CCCN(C)CCCN(C)C(=O)CN2CCN(CC(=O)[O-])CCN(CC(=O)[O-])CCN(CC(=O)[O-])CC2)cc1C(C)C.[177Lu+3] (stereo not shown) [^177Lu-C-2, reference compound]	ASPC-1 tumor-bearing mice	% ID/g	3.34
